Target: T1, IL10Rα and IL2Rγ on human primary cells (CD8 T cells, CD4 T cells, monocytes) (human) (UniProt Q13651)
T1 sequence (looked up) 1: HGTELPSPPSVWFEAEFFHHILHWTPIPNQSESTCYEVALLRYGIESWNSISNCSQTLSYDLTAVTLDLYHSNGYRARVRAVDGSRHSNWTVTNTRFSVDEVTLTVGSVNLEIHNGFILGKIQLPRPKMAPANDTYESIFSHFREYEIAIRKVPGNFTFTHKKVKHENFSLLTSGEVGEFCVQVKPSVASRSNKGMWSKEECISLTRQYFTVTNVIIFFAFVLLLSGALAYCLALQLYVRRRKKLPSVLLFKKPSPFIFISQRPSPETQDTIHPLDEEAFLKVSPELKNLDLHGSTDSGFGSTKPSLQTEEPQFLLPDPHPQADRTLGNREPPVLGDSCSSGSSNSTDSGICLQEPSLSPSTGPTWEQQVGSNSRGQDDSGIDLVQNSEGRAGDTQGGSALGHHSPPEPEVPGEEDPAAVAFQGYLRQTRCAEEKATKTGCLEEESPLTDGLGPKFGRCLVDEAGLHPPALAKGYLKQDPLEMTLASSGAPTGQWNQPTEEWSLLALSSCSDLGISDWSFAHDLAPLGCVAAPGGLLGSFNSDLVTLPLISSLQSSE
T1 sequence (looked up) 2: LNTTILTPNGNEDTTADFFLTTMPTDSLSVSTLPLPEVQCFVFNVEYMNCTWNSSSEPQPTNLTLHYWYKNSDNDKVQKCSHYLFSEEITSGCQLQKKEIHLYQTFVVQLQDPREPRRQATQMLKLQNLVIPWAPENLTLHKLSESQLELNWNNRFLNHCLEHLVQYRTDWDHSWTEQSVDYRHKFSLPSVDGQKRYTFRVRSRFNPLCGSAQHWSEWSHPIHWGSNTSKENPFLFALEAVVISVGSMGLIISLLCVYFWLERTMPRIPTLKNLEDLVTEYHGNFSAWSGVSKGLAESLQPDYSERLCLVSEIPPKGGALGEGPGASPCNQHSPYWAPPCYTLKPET
Assay: cell-based or functional assay
RECORDED_METRIC: pSTAT3 (MFI) in monocytes at 0.001 µM
Write the value in MFI as a bare number.

Previously resolved entries follow.
hIL10Ra_VHH14-hIL2Rg_VHH19, linker GGGSGGGS, tag his (bispecific antibody, not shown: small tags and cut ends) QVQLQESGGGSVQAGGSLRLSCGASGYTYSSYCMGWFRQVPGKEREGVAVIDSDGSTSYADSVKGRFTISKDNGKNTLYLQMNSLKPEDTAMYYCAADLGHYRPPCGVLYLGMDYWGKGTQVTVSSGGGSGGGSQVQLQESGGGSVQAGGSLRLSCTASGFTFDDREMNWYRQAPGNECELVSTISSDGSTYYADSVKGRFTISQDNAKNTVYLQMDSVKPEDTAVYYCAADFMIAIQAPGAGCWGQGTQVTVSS :: 4820
hIL10Ra_VHH14-hIL2Rg_VHH19, linker GGGS, tag Fc (Fc fusion, not shown: a dimerising Fc or GST) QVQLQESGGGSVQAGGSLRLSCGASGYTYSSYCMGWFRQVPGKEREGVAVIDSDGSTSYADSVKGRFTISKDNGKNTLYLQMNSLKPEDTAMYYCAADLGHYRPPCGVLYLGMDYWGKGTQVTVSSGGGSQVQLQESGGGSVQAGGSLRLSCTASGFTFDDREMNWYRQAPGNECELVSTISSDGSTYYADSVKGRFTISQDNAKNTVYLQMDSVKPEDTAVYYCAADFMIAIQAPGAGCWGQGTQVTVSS :: 4740
hIL10Ra_VHH14-hIL2Rg_VHH19, no linker, tag his (bispecific antibody, not shown: small tags and cut ends) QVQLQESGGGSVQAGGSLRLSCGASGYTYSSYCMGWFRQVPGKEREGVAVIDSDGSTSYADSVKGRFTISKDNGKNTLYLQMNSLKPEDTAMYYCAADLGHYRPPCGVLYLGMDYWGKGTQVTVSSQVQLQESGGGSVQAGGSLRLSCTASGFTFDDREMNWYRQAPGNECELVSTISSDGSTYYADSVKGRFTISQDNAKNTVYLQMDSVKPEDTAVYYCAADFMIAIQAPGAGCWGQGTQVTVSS :: 4600

Consider the record given below.
So what's the measured pSTAT3 (MFI) in monocytes at 0.001 µM for this one? hIL10Ra_VHH14-hIL2Rg_VHH19, linker GGSGGS, tag his (bispecific antibody, not shown: small tags and cut ends) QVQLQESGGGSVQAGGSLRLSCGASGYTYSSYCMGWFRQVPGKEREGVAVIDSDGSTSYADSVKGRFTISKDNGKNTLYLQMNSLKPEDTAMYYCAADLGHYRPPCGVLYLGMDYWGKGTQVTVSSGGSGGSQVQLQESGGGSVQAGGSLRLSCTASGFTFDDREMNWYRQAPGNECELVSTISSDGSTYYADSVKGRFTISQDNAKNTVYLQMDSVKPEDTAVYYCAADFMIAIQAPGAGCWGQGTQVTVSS
4680
